Below, each entry is listed with its recorded pEC50.
- Tgt: Isoform Bcl-X(L) of Bcl-2-like protein 1 (Bcl-xL) (Homo sapiens, UniProt Q07817)
- Sequence (Q07817 whole entry G70A, canonical isoform): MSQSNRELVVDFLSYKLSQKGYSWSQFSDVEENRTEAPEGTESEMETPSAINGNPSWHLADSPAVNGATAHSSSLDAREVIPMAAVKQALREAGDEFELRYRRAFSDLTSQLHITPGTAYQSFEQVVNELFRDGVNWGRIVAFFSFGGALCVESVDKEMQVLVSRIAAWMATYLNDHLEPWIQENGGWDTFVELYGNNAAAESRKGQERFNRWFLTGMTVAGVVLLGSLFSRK
- Assay Remarks: Bcl-XL binding to Bim peptide disruption – biochemical, multiplexed, bead flow cytometry, human Bcl-XL, dose response (AID 1322)
- Particulars: inactive by the depositor's call; pH 7.4; 4 °C
pEC50: −log10 of the molar value.

Compound: COc1ccc(OC)c(-n2c(=O)c3ccccc3c3ccccc3c2=O)c1 [SMR000236434]
Tgt: Isoform Bcl-X(L) of Bcl-2-like protein 1 (Bcl-xL) (Homo sapiens, UniProt Q07817)
pEC50: 4.76
//
Compound: C#CCn1cc(C=C2C(=O)c3ccccc3C2=O)c2ccccc21 [SMR000196125]
Tgt: Isoform Bcl-X(L) of Bcl-2-like protein 1 (Bcl-xL) (Homo sapiens, UniProt Q07817)
pEC50: 4.93
//
Compound: COc1ccc(C)cc1-n1c(=O)c2ccccc2c2ccccc2c1=O [MLS000682999]
Tgt: Isoform Bcl-X(L) of Bcl-2-like protein 1 (Bcl-xL) (Homo sapiens, UniProt Q07817)
pEC50: 4.73
//
Compound: Clc1nc(NCc2cccnc2)nc(N2CCOCC2)n1 [MLS000121154]
Tgt: Isoform Bcl-X(L) of Bcl-2-like protein 1 (Bcl-xL) (Homo sapiens, UniProt Q07817)
pEC50: 4.74
//
Compound: O=C(CSc1ccc2nnc(-c3ccncc3)n2n1)Nc1nccs1 [SMR000320332]
Tgt: Isoform Bcl-X(L) of Bcl-2-like protein 1 (Bcl-xL) (Homo sapiens, UniProt Q07817)
pEC50: 4.65

---

- Tgt: Isoform Bcl-X(L) of Bcl-2-like protein 1 (Bcl-xL) (Homo sapiens, UniProt Q07817)
- Assay Remarks: Bcl-XL binding to Bim peptide disruption – biochemical, multiplexed, bead flow cytometry, human Bcl-XL, dose response (AID 1322)
- Particulars: pH 7.4; 4 °C
Structures can show the parent of a compound that is named as a salt.
Attribute Measured: EC50 (µM)

Compound: CCC(/C=C1\Sc2ccc(OC)cc2N1CCO)=C\c1sc2ccc(OC)cc2[n+]1CCO
Attribute Measured: EC50
Quantity Unit: µM
Measured: 19.2
--
Compound: CN1CCc2cccc3c2[C@@H]1Cc1ccc(O)c(O)c1-3
Attribute Measured: EC50
Quantity Unit: µM
Measured: 18.6
--
Compound: O=C(/C=C\c1ccc(-c2ccccc2)o1)c1ccccc1
Attribute Measured: EC50
Quantity Unit: µM
Measured: 9.36
--
Compound: Clc1nc2ccccc2cc1CN=Nc1nc2ccccc2[nH]1
Attribute Measured: EC50
Quantity Unit: µM
Measured: 49.7
--
Compound: Nc1c(C(=O)NCC2CCCO2)sc2nc3c(c(-c4ccco4)c12)CC/C3=C\c1ccco1 (stereo not drawn)
Attribute Measured: EC50
Quantity Unit: µM
Measured: 6.11
--
Compound: CN1CCc2cccc3c2[C@H]1Cc1ccc(O)c(O)c1-3 [APOMORPHINE HYDROCHLORIDE]
Attribute Measured: EC50
Quantity Unit: µM
Measured: 18.9
--
Compound: CCCCNc1[nH]c(=S)nc2cc(OC)c(OC)cc12
Attribute Measured: EC50
Quantity Unit: µM
Measured: 3.81
--
Compound: Nc1c(C(=O)NC2CC2)sc2nc3c(c(-c4ccco4)c12)CC/C3=C/c1ccco1
Attribute Measured: EC50
Quantity Unit: µM
Measured: 9.01
--
Compound: COc1cccc(CN=Nc2nn3cnnc3c3ccccc23)c1
Attribute Measured: EC50
Quantity Unit: µM
Measured: 2.04
--
Compound: Cc1nc2ncccn2c1-c1csc(Nc2ccc(O)cc2)n1
Attribute Measured: EC50
Quantity Unit: µM
Measured: 0.39
--
Compound: COc1cc(CN=Nc2nn3cnnc3c3ccccc23)ccc1O
Attribute Measured: EC50
Quantity Unit: µM
Measured: 2.43
--
Compound: O=C1c2ccccc2-c2onc3ccc(NCCCn4ccnc4)c1c23
Attribute Measured: EC50
Quantity Unit: µM
Measured: 1.14
--
Compound: OCCN1CCN(CCCc2c3c(cc4c2CCC4)CCC3)CC1
Attribute Measured: EC50
Quantity Unit: µM
Measured: 16.1
--
Compound: COc1cc(C=NNC(=O)CN(Cc2ccco2)S(=O)(=O)c2ccccc2)ccc1O
Attribute Measured: EC50
Quantity Unit: µM
Measured: 18.4
--
Compound: COc1cccc(CN=Nc2nn3cnnc3c3ccccc23)c1O
Attribute Measured: EC50
Quantity Unit: µM
Measured: 0.57
--
Compound: COc1cccc2c(SCC(=O)NN=Cc3ccc(O)cc3O)cc(C)nc12
Attribute Measured: EC50
Quantity Unit: µM
Measured: 83.6
--
Compound: CCN1/C(=C/C(C)=C/c2sc3ccccc3[n+]2CC)Sc2ccccc21
Attribute Measured: EC50
Quantity Unit: µM
Measured: 26.4
--
Compound: Cc1nnc2ccc(-c3cccc(NC(=O)c4ccco4)c3)nn12
Attribute Measured: EC50
Quantity Unit: µM
Measured: 5.17
